Tested on: ATP;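 further: ATP exposure 15 min at 22 °C before imaging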
test_summary: switch fluorescence ratio, 500 uM ATP over buffer (Cy3 cluster intensity, sum of 5 cycles each) (fold (ratio)); higher = stronger signal-on switching upon ATP binding; sequences stand for … in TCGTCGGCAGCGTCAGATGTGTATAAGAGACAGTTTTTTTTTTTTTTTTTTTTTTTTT…TC
reported_conditions: aptamer strand: ATP DNA aptamer (quencher-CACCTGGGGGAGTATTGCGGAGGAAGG + anchor), 100 nM annealed; ATP concentration: 500 uM
So I've got a bunch of sequences here, and I need their switch fluorescence ratio values.
// keep it numeric: no unit symbol after the value

Please indicate recorded switch fluorescence ratio of TCAGGGGCGG measured with ATP. 1.04

Recall the reported switch fluorescence ratio of AAGGAGGGAT on ATP and write it down. 1

Provide switch fluorescence ratio, tested on ATP, for ATCAGATGAA . 0.999

Write switch fluorescence ratio of GGTGGGCAAT ; system used: ATP 1.11

Tell me its switch fluorescence ratio on ATP: GGTCGAAAAC 1.06

Quote ATP switch fluorescence ratio for entry ACGTAGGGGT . 1.21

Identify measured switch fluorescence ratio obtained with ATP for TTTGTGTATT . 0.978

Print ATP switch fluorescence ratio for TTTTGTAACG . 1

Look up and report measured switch fluorescence ratio (ATP) for the following sequence: GGATGAGGGC 0.993

Determine reported switch fluorescence ratio for ATGAGTCGGA ; test system: ATP. 0.975

Quote ATP switch fluorescence ratio for entry ACGGAATCCT . 1.19

# return switch fluorescence ratio of TGATTTATAG (system: ATP) 1.01

Fetch value of switch fluorescence ratio on ATP for CCTGGGGGCC . 1

Report switch fluorescence ratio from ATP testing of CGGGTTGCAT 1.02

State switch fluorescence ratio on ATP. Entry: AAATGGCTGG 0.998

Return reported switch fluorescence ratio for target or system ATP, item GGAGGCAAGG . 1.1

Determine reported switch fluorescence ratio for CAGGTCACTG ; test system: ATP. 0.965

Tell me switch fluorescence ratio of ACAATTGCTA when tested on ATP. 0.994

// output switch fluorescence ratio; input TTTGCGTTAC ; system ATP 1.58

// fetch switch fluorescence ratio for CTGCTTGGTT ; system: ATP 1
